system-tested: HDAC10 (Homo sapiens (Human), UniProt Q969S8)
Sequence (Q969S8 whole entry): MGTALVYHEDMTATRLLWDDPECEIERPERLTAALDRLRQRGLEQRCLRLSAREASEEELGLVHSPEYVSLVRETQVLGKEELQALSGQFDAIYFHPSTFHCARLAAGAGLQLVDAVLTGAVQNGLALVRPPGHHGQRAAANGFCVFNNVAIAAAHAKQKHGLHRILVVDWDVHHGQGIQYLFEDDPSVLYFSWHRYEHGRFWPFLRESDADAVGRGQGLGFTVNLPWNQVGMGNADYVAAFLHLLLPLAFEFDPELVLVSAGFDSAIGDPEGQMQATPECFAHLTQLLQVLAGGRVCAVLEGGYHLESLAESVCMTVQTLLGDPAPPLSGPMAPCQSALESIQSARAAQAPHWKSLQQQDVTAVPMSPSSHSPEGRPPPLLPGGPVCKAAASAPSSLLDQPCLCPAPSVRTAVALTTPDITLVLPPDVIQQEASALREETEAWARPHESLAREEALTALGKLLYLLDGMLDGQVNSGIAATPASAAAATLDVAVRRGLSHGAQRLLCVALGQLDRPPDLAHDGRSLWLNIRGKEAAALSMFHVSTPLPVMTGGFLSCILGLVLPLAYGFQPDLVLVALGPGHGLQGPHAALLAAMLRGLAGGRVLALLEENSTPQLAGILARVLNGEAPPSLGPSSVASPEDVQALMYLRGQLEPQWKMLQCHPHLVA
experiment: IC50 assay, BPS Biosciences fluorescence assay
Type: biochemical
condition-set: BPS Biosciences; unit mM printed in cell
observable: IC50

Dear colleague, I am looking for the recorded IC50 of the following compound: CN(Cc1ccc(C(=O)NO)cc1F)CC12CC3CC(CC(C3)C1)C2 > 1 mM

###

system-tested: HDAC1 (Homo sapiens (Human))
Sequence (Q13547 whole entry): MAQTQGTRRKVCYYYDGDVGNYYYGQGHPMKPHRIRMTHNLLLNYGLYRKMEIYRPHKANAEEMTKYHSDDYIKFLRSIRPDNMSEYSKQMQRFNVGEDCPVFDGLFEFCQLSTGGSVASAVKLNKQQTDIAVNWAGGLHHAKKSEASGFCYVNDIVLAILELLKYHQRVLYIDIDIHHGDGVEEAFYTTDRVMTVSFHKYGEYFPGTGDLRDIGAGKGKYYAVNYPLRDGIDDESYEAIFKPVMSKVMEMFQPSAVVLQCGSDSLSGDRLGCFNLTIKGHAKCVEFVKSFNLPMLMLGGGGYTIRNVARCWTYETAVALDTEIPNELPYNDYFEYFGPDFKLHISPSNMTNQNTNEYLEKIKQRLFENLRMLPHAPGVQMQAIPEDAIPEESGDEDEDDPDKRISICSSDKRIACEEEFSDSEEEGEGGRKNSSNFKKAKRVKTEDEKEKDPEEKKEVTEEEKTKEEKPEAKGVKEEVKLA
experiment: IC50 assay, BPS Biosciences fluorescence assay
Type: biochemical
condition-set: IC50 measured by BPS
pIC50: −log10 of the molar value.
observable: pIC50

Dear colleague, I am looking for the recorded pIC50 of the following compound: CN(Cc1ccc(C(=O)NO)cc1F)CC12CC3CC(CC(C3)C1)C2 < 6.00
